# assay-overview: qHTS for Inhibitors of human tyrosyl-DNA phosphodiesterase 1 (TDP1): qHTS in cells in absence of CPT; further: nearly all actives have a fitted effect of over 55% in size
# study-conditions: DT40 Tdp1-/- hTDP1 cells, no CPT, ATP luminescence, 48 h
Out of some 420,000 compounds screened, about 64,000 (15%) were called active. About 27% were inconclusive and are not listed. The call rests on the fitted dose curve; in most records, active means well fitted inhibition curve with a large enough effect; inconclusive means small, poorly fitted or top-dose-only effect; inactive means flat fitted curve, though single readings scatter. A selection follows.
In this exercise, the only acceptable responses are active, inactive

INSERT INTO results (compound, qualitative_label) VALUES
  ('CC(=O)c1ccc(NC(=O)C(C)OC(=O)c2ccc(NS(=O)(=O)c3ccc4[nH]c(=O)[nH]c4c3)cc2)cc1 (stereo not given)', 'inactive'),
  ('COc1ccc(C2CC(c3cccs3)=NN2c2ccc(F)cc2)cc1OC (stereo not given)', 'inactive'),
  ('CCc1cccc(C)c1Nc1c(-c2ccc(N(C)C)cc2)nc2ncccn12', 'active'),
  ('Cc1nc(-c2ccc(F)cc2)c(CC(=O)N(C)CC(=O)Nc2c(C)cccc2C)s1', 'inactive');

Request: Any idea what this test logged for CC(=O)Nc1ccc(S(=O)(=O)N2CCCC2C(=O)O)cc1 (stereo not given) ?
Response: inactive

====

# assay-overview: qHTS for Inhibitors of human tyrosyl-DNA phosphodiesterase 1 (TDP1): qHTS in cells in absence of CPT; further: nearly all actives have a fitted effect of over 55% in size
# study-conditions: DT40 Tdp1-/- hTDP1 cells, no CPT, ATP luminescence, 48 h
About 64,000 (15%) of roughly 420,000 compounds were called active. Another 27% or so got no clear call; they are omitted. Calls come from the whole dose curve; as a rule, active = well fitted inhibition curve with a large enough effect; inconclusive = small, poorly fitted or top-dose-only effect; inactive = flat fitted curve, though single readings scatter. These entries were drawn from the full list.
In this exercise, the only acceptable responses are active, inactive

INSERT INTO results (compound, qualitative_label) VALUES
  ('O=C(COC(=O)c1cccs1)NCc1cccs1', 'inactive');

Request: Any idea what this test logged for CC1(C(=O)O)CCCN(C(=O)/C=C/c2ccccc2)C1 (stereo unspecified) ?
Response: inactive

Request: Any idea what this test logged for CC(C)Cn1c(N2CCN(C(=O)/C=C/c3ccccc3)CC2)nc2ccccc21 ?
Response: active

Request: Any idea what this test logged for O=C(/C=C/c1ccco1)NC(=S)N1CCCCC1 ?
Response: inactive

Request: Any idea what this test logged for O=C(Cc1c(F)cccc1Cl)N1CCN(C(=O)c2ccco2)CC1 ?
Response: inactive

Request: Any idea what this test logged for CC(C)N(C(=O)Cn1c(SCC(=O)N2CCN(c3ccccc3)CC2)nc2ccccc21)C(C)C ?
Response: inactive

====

# assay-overview: qHTS for Inhibitors of human tyrosyl-DNA phosphodiesterase 1 (TDP1): qHTS in cells in absence of CPT; further: nearly all actives have a fitted effect of over 55% in size
# study-conditions: DT40 Tdp1-/- hTDP1 cells, no CPT, ATP luminescence, 48 h
The whole screen tested about 420,000 compounds, of which about 64,000 (15%) were called active. Inconclusive results (about 27%) are left out. Calls come from the whole dose curve; as a rule, active = well fitted inhibition curve with a large enough effect; inconclusive = small, poorly fitted or top-dose-only effect; inactive = flat fitted curve, though single readings scatter. Not all results are given here.
In this exercise, the only acceptable responses are active, inactive

Record excerpt, results attached:
INSERT INTO assay_data (compound, qualitative_label) VALUES
  ('O=C1C(Cc2ccc(O)cc2)NC(=S)N1Cc1ccccc1 (stereo not drawn)', 'inactive'),
  ('S=c1[nH]nc(-c2cccs2)n1/N=C/c1cccs1', 'inactive'),
  ('COc1ccc(-c2nc(CS(=O)CC(=O)NCc3cccnc3)c(C)o2)cc1OC (stereo not drawn)', 'inactive'),
  ('CCC1Nc2ncnc(N3CCN(c4ccccc4)CC3)c2N(Cc2ccc(Cl)cc2)C1=O (stereo not drawn)', 'active'),
  ('Cc1ccsc1/C=N/n1c(=S)[nH]nc(C)c1=O', 'active');

Request: Any idea what this test logged for O=C1OC(Cc2ccccc2)C(c2ccccc2)C1=O (stereo not drawn) ?
Response: inactive

Request: Any idea what this test logged for O=C(CN1CCN(c2ncc(C(F)(F)F)cc2Cl)CC1)Nc1ccc2c(c1)OCO2 ?
Response: inactive

Request: Any idea what this test logged for C#CCOc1ccc(C2CC(=O)Nc3c2c(C)nn3-c2nc(C)cc(C)n2)cc1 (stereo not drawn) ?
Response: active

Request: Any idea what this test logged for O=C(Nc1ccccc1N1CCCCC1)c1cccc(F)c1 ?
Response: inactive

Request: Any idea what this test logged for COc1ccc(C2CC(=O)Nc3c2c(=O)nc2c(C)cccn32)cc1OC (stereo not drawn) ?
Response: inactive

Request: Any idea what this test logged for CCOC(=O)NC(=O)CSc1nnc(SCCC(=O)O)s1 ?
Response: inactive

Request: Any idea what this test logged for COc1ccc(C2c3c(C)nn(-c4ccccc4)c3NC(=O)N2c2ccccc2)cc1 (stereo not drawn) ?
Response: inactive

Request: Any idea what this test logged for Nc1c(N(CCO)C(=O)C2CCCCC2)c(=O)[nH]c(=O)n1Cc1ccccc1 ?
Response: inactive

Request: Any idea what this test logged for Cc1ccccc1NC(=O)Nc1ccccc1N1CCCCC1 ?
Response: active

Request: Any idea what this test logged for Cc1ccc(F)c(S(=O)(=O)NC(=O)C2(C)CCN2C(=O)c2ccco2)c1 (stereo not drawn) ?
Response: inactive

====

# assay-overview: qHTS for Inhibitors of human tyrosyl-DNA phosphodiesterase 1 (TDP1): qHTS in cells in absence of CPT; further: nearly all actives have a fitted effect of over 55% in size
# study-conditions: DT40 Tdp1-/- hTDP1 cells, no CPT, ATP luminescence, 48 h
Hit rate of the full screen: of about 420,000 compounds, about 64,000 (15%) were called active. About 27% were inconclusive and are not listed. Calls come from the whole dose curve; as a rule, active = well fitted inhibition curve with a large enough effect; inconclusive = small, poorly fitted or top-dose-only effect; inactive = flat fitted curve, though single readings scatter. The list is a sample of the results.
In this exercise, the only acceptable responses are y for active, n for inactive

Record excerpt, results attached:
INSERT INTO assay_data (compound, qualitative_label) VALUES
  ('COC(=O)c1noc(C)c1-c1ccnn1C(=O)c1ccc(Cl)cc1', 'n'),
  ('CCCNC(=O)C1CC(=O)N(c2ccc(OCc3ccccc3)cc2)C1 (configuration not stated)', 'n'),
  ('O=C(Nc1ccccc1C(=O)N1CCOCC1)C1CCC(=O)N1C1CCCC1 (configuration not stated)', 'n');

Request: Any idea what this test logged for CCCN(CC(=O)Nc1ccc(C(N)=O)cc1)CC(=O)Nc1ccccc1C ?
Response: n

Request: Any idea what this test logged for COCC1CCN(C(=O)C2CCC(=O)N(CC3CCCCC3)C2)CC1 (configuration not stated) ?
Response: n

Request: Any idea what this test logged for Cc1onc(-c2ccc(Cl)cc2)c1-c1ccnn1S(=O)(=O)c1ccc(Cl)cc1 ?
Response: y

Request: Any idea what this test logged for CCOc1ccc(C2C3=C(CCCC3=O)N(CC(=O)O)C3=C2C(=O)CCC3)cc1 ?
Response: n

Request: Any idea what this test logged for CC(C)(C)N1C(=O)c2c(C(=O)OCc3ccccc3)[nH]c(-c3ccccc3)c2C1=O ?
Response: n

====

# assay-overview: qHTS for Inhibitors of human tyrosyl-DNA phosphodiesterase 1 (TDP1): qHTS in cells in absence of CPT; further: nearly all actives have a fitted effect of over 55% in size
# study-conditions: DT40 Tdp1-/- hTDP1 cells, no CPT, ATP luminescence, 48 h
About 64,000 (15%) of roughly 420,000 compounds were called active. Roughly 27% stayed inconclusive and do not appear here. Calls follow the shape of the dose curve; as a rule, active = well fitted inhibition curve with a large enough effect; inconclusive = small, poorly fitted or top-dose-only effect; inactive = flat fitted curve, though single readings scatter. Not all results are given here.
In this exercise, the only acceptable responses are active, inactive

INSERT INTO measurements (compound_smiles, qualitative_label) VALUES
  ('CCOc1ccc(NC(=O)N2CCN(CC)CC2)cc1', 'inactive'),
  ('CCOC(=O)c1c(SCC(=O)Nc2cccc(C)c2C)nc(=O)[nH]c1C', 'inactive');

Request: Any idea what this test logged for CC(=O)N1CCOc2ccc(S(=O)(=O)N3CCC(C(=O)Nc4ccccc4F)CC3)cc21 ?
Response: inactive

Request: Any idea what this test logged for CCOC(=O)c1ccccc1NC(=S)N1CCC(C(N)=O)CC1 ?
Response: inactive

Request: Any idea what this test logged for COc1cc(/C=N/NC(=O)Cc2ccccc2)cc(OC)c1OC ?
Response: inactive

Request: Any idea what this test logged for COC(=O)c1ccccc1NC(=O)C1CCN(C(=O)N2CCOc3ccccc32)CC1 ?
Response: active

====

# assay-overview: qHTS for Inhibitors of human tyrosyl-DNA phosphodiesterase 1 (TDP1): qHTS in cells in absence of CPT; further: nearly all actives have a fitted effect of over 55% in size
# study-conditions: DT40 Tdp1-/- hTDP1 cells, no CPT, ATP luminescence, 48 h
Among all 420,000 compounds or so, about 64,000 (15%) were called active. Not shown: some 27% with an inconclusive outcome. Calls follow the shape of the dose curve; as a rule, active = well fitted inhibition curve with a large enough effect; inconclusive = small, poorly fitted or top-dose-only effect; inactive = flat fitted curve, though single readings scatter. Only a sample is shown.
In this exercise, the only acceptable responses are active, inactive

INSERT INTO assay_data (molecule, qualitative_label) VALUES
  ('COc1ccc2[nH]c(C(=O)N3CCN(C)CC3)c(C)c2c1', 'inactive');

Request: Any idea what this test logged for O=C(c1ccccc1)N1CCN(c2cc(-c3ccccc3)nc3cc(-c4cccc(Cl)c4)nn23)CC1 ?
Response: active

Request: Any idea what this test logged for O=C(NC(=O)N1CCOCC1)c1ccccc1 ?
Response: inactive

Request: Any idea what this test logged for COCC(C)NC(=O)COc1nncc2ccccc12 (stereo unspecified) ?
Response: inactive

====

# assay-overview: qHTS for Inhibitors of human tyrosyl-DNA phosphodiesterase 1 (TDP1): qHTS in cells in absence of CPT; further: nearly all actives have a fitted effect of over 55% in size
# study-conditions: DT40 Tdp1-/- hTDP1 cells, no CPT, ATP luminescence, 48 h
Among all 420,000 compounds or so, about 64,000 (15%) were called active. Another 27% or so got no clear call; they are omitted. Calls come from the whole dose curve; as a rule, active = well fitted inhibition curve with a large enough effect; inconclusive = small, poorly fitted or top-dose-only effect; inactive = flat fitted curve, though single readings scatter. Not all results are given here.
In this exercise, the only acceptable responses are yes = active, no = inactive

Record excerpt, results attached:
INSERT INTO results (molecule, qualitative_label) VALUES
  ('Cc1cccc(C)c1NC(=O)C(c1ccccc1)N1CC(=O)Nc2ccccc21 (centres undefined)', 'no'),
  ('CCOCCCNC(=O)C(NC(=O)CNC(=O)c1ccccc1)c1ccc(C)cc1 (centres undefined)', 'no'),
  ('CC1(C)CC(=O)C=C(c2cccc3c2Oc2ccccc2S3)C1', 'no'),
  ('O=C(CC(c1cccs1)N1Cc2ccccc2C1=O)Nc1ccc(F)cc1F (centres undefined)', 'yes'),
  ('FC(F)(F)c1cc(Nc2nc3ccccc3c3nncn23)ccc1Cl', 'yes');

Request: Any idea what this test logged for Cc1cc(=O)oc2c3c(cc(OCC(=O)N[C@H](C(=O)O)c4ccccc4)c12)OC(C)(C)CC3 ?
Response: no

Request: Any idea what this test logged for CCCCN(C(=O)/C=C/c1ccco1)c1c(N)n(CC(C)C)c(=O)[nH]c1=O ?
Response: no

Request: Any idea what this test logged for Cc1ccc(N2C(=O)C(CC(=O)Nc3cccc(F)c3)N(CCc3ccncc3)C2=O)cc1 (centres undefined) ?
Response: no

Measured values drawn from PubChem BioAssay AID686978 for this set.
